Target: UniProt:P00533
# IC50 annotations

Use the examples below as a reference point.
CCN(CC)CCCCNc1cc(-c2ncnc(Nc3cc(OC)c(OC)c(OC)c3)n2)ccn1 :: > 4.5 mg/L
CN(c1cccc(Cl)c1)c1ncnc(Nc2ccc(Cl)c(Cl)c2)n1 :: > 4.5 mg/L
COc1cc(Nc2ncnc(NC3CCc4ccccc43)n2)cc(OC)c1OC (stereo not given) :: 0.4 to 2.4 mg/L
O=c1[nH]c2ccccc2n1-c1ncnc(Nc2nccc3ccccc23)n1 :: 0.4 to 2.4 mg/L
COc1ccc2c(ccn2-c2ncnc(Nc3cc(OC)c(OC)c(OC)c3)n2)c1 :: 3.5 to 4.5 mg/L
OCc1ccc(Nc2ncnc(-c3ccccc3)n2)cc1 :: > 4.5 mg/L
COC(=O)c1cc(OC)c(OC)cc1Nc1ncnc(-n2c(N)nc3ccccc32)n1 :: > 4.5 mg/L
COc1cc(Nc2ncnc(Nc3cc(-c4ccc(C)cc4)n[nH]3)n2)cc(OC)c1OC :: 0.4 to 2.4 mg/L

Prompt line: In one line, give reported IC50 of the entry O=C(Nc1ccc(Nc2ncnc(-n3c(=O)[nH]c4ccccc43)n2)cc1)O[C@@H]1CCOC1 .
Response line: > 4.5 mg/L

Prompt line: In one line, give reported IC50 of the entry COc1cc(Nc2ncnc(Nc3nc4ccccc4s3)n2)cc(OC)c1OC .
Response line: > 4.5 mg/L

###

Target: EGFR (UniProt P00533)
Sequence (P00533 whole entry, looked up): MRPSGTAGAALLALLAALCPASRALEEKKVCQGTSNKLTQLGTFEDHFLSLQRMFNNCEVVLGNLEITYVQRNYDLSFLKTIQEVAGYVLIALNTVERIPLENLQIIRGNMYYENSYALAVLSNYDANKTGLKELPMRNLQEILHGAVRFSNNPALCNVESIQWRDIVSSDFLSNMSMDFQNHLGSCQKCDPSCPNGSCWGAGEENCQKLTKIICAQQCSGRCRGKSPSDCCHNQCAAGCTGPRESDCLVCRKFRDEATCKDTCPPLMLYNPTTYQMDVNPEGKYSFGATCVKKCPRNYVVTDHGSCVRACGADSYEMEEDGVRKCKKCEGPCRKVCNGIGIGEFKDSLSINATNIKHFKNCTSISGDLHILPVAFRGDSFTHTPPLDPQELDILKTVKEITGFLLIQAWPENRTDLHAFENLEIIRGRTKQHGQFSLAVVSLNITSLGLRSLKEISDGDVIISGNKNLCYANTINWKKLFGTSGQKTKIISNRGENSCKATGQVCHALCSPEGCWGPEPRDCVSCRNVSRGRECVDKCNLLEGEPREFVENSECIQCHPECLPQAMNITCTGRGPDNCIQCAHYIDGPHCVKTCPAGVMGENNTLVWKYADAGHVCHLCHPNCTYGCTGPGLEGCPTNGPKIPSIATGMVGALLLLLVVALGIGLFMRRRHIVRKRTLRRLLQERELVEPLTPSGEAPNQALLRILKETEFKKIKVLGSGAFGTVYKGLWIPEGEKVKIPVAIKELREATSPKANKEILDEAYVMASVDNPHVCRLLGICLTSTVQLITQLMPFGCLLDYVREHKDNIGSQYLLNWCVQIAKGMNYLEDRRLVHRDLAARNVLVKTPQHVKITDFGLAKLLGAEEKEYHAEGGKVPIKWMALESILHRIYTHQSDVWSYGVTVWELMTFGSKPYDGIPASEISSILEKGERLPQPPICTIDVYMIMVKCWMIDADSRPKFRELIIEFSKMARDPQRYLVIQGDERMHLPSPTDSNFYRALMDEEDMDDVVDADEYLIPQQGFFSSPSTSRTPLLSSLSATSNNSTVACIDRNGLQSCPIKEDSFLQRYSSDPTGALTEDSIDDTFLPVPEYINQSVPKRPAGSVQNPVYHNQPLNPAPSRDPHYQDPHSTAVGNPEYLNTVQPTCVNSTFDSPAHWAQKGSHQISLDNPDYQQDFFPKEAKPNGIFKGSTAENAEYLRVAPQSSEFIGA
recorded endpoint: IC50

COc1cc(Nc2ncnc(Nc3ccc(C(=O)O)cc3)n2)cc(OC)c1OC :: 0.4 to 2.4 µg/mL
COc1cccc(Nc2ncnc(-c3ccccc3)n2)c1 :: > 4.5 µg/mL
COc1cc(Nc2ncnc(-c3cccnc3NCc3cccc4ccccc34)n2)cc(OC)c1OC :: > 4.5 µg/mL
COCCOc1ccc(Nc2ncnc(Nc3ccc(C)c(O)c3)n2)cc1OC :: < 0.4 µg/mL
Fc1cccc(CNc2nc3ccccc3n2-c2ncnc(Nc3cccc(Cn4ccnn4)c3)n2)c1 :: 0.4 to 2.4 µg/mL

Prompt line: In one line, give reported IC50 of the entry COc1cc(Nc2ncnc(-n3cc(C#N)c4ccccc43)n2)cc(OC)c1OC .
Response line: > 4.5 µg/mL

Prompt line: In one line, give reported IC50 of the entry COc1cc(Nc2ncnc(-n3c(NCCCCO)nc4ccccc43)n2)cc(OC)c1OC .
Response line: > 4.5 µg/mL

Prompt line: In one line, give reported IC50 of the entry c1csc(-c2ncnc(Nc3ccc(N4CCOCC4)cc3)n2)c1 .
Response line: > 4.5 µg/mL

Prompt line: In one line, give reported IC50 of the entry COc1cc(Nc2ncnc(Nc3[nH]ncc3-c3ccccc3)n2)cc(OC)c1OC .
Response line: > 4.5 µg/mL

Prompt line: In one line, give reported IC50 of the entry COc1cc(Nc2ncnc(-n3c(Nc4ccc(OC(F)(F)F)cc4)nc4ccccc43)n2)cc(OC)c1OC .
Response line: 2.4 to 3.5 µg/mL

Prompt line: In one line, give reported IC50 of the entry CN1CCN(Cc2cccc(Nc3ncnc(Nc4cccc5ccccc45)n3)c2)CC1 .
Response line: > 4.5 µg/mL

Prompt line: In one line, give reported IC50 of the entry COc1ccc(Nc2ncnc(NC[C@@H]3CCCO3)n2)cc1OC .
Response line: > 4.5 µg/mL

Prompt line: In one line, give reported IC50 of the entry COc1cc(Nc2ncnc(-n3cnc4ccccc43)n2)cc(OC)c1OC .
Response line: 3.5 to 4.5 µg/mL
